Every entry's value here was drawn from ChEMBL document CHEMBL3259704.

Tested on: Plasmodium falciparum
Experiment: Antimalarial activity against CQ, MFQ-resistant Plasmodium falciparum TM91C235 clone Southeast asian isolate assessed as inhibition of parasite proliferation by MSF assay
Format: functional, organism-based
Record form. Attribute: IC50. Fill in for each entry.
# output: bare number, implied unit nM

IC50 in this record for CC(=O)O[C@H]1C[C@H]2[C@@H]([C@H](OC(C)=O)C[C@@H]3C[C@H](NS(C)(=O)=O)CC[C@@]32C)[C@@H]2CC[C@H]([C@H](C)CCCN(C)CCNc3ccnc4cc(Cl)ccc34)[C@@]12C : 6.59

# IC50 (compound: CC(=O)O[C@@H]1CC[C@@]2(C)[C@@H](C1)C[C@@H](OC(C)=O)[C@@H]1[C@@H]2C[C@H](OC(C)=O)[C@]2(C)[C@@H]([C@H](C)CCCN(C)CCCNc3ccnc4cc(Cl)ccc34)CC[C@@H]12 ) is 22.3

Entry CC(=O)O[C@H]1C[C@H]2[C@@H]([C@H](OC(C)=O)C[C@@H]3C[C@H](N)CC[C@@]32C)[C@@H]2CC[C@H]([C@H](C)CCCN(C)CCCNc3ccnc4cc(Cl)ccc34)[C@@]12C ; IC50 = 100

Sure, the documented IC50 for CC(=O)O[C@H]1C[C@H]2[C@@H]([C@H](OC(C)=O)C[C@@H]3C[C@H](NC(=O)OC(C)(C)C)CC[C@@]32C)[C@@H]2CC[C@H]([C@H](C)CCCN(C)CCNc3ccnc4cc(Cl)ccc34)[C@@]12C is 16.3

###

Experiment: Selectivity index, ratio of IC50 for human HepG2 cells to IC50 for CQ-resistant, MFQ-susceptible Plasmodium falciparum W2 clone Indochina 1 isolate
Format: toxicity, cell-based
Settings: read-out: Ratio IC50
What selectivity ratio was measured for each of the following?
Enter the number alone.

For reference, reported selectivity ratio for CC(=O)O[C@H]1C[C@H]2[C@@H]([C@H](OC(C)=O)C[C@@H]3C[C@H](NC(=O)OC(C)(C)C)CC[C@@]32C)[C@@H]2CC[C@H]([C@H](C)CCCNCCNc3ccnc4cc(Cl)ccc34)[C@@]12C stands at 1740

Per the record, CC(=O)O[C@H]1C[C@H]2[C@@H]([C@H](OC(C)=O)C[C@@H]3C[C@H](N)CC[C@@]32C)[C@@H]2CC[C@H]([C@H](C)CCCN(CCC[C@@H](C)[C@H]3CC[C@H]4[C@@H]5[C@H](OC(C)=O)C[C@@H]6C[C@H](N)CC[C@]6(C)[C@H]5C[C@H](OC(C)=O)[C@]34C)CCNc3ccnc4cc(Cl)ccc34)[C@@]12C has selectivity ratio of 21

###

Test: Selectivity index, ratio of IC50 for human HepG2 cells to IC50 for CQ, MFQ-susceptible Plasmodium falciparum D6 clone Sierra 1/UNC isolate
Assay type: toxicity, cell-based
Conditions: read-out: Ratio IC50
experimental-endpoint: selectivity ratio

According to the records, this molecule CC(=O)O[C@H]1C[C@H]2[C@@H]([C@H](OC(C)=O)C[C@@H]3CC(=O)CC[C@@]32C)[C@@H]2CC[C@H]([C@H](C)CCCNCCCCCCNc3ccnc4cc(Cl)ccc34)[C@@]12C displays selectivity ratio of 27

For reference, reported selectivity ratio for CC(=O)O[C@H]1C[C@H]2[C@@H]([C@H](OC(C)=O)C[C@@H]3C[C@H](NC(=O)OC(C)(C)C)CC[C@@]32C)[C@@H]2CC[C@H]([C@H](C)CCCN(C)CCNc3ccnc4cc(Cl)ccc34)[C@@]12C stands at 264

Field selectivity ratio (entry CC(=O)O[C@H]1C[C@H]2[C@@H]([C@H](OC(C)=O)C[C@@H]3C[C@H](NC(=O)OC(C)(C)C)CC[C@@]32C)[C@@H]2CC[C@H]([C@H](C)CCCNCCNc3ccnc4cc(Cl)ccc34)[C@@]12C ) reads 531

Quick note, selectivity ratio for CC(=O)O[C@@H]1CC[C@@]2(C)[C@@H](C1)C[C@@H](OC(C)=O)[C@@H]1[C@@H]2C[C@H](OC(C)=O)[C@]2(C)[C@@H]([C@H](C)CCCNCCCCCCNc3ccnc4cc(Cl)ccc34)CC[C@@H]12 landed at 29

Lab note: CC(=O)N[C@@H]1CC[C@@]2(C)[C@@H](C1)C[C@@H](OC(C)=O)[C@@H]1[C@@H]2C[C@H](OC(C)=O)[C@]2(C)[C@@H]([C@H](C)CCCNCCNc3ccnc4cc(Cl)ccc34)CC[C@@H]12 gave selectivity ratio of 116

Kindly note the recorded selectivity ratio for CC(=O)O[C@H]1C[C@H]2[C@@H]([C@H](OC(C)=O)C[C@@H]3C[C@H](N(C)C)CC[C@@]32C)[C@@H]2CC[C@H]([C@H](C)CCCNCCCNc3ccnc4cc(Cl)ccc34)[C@@]12C , which is 137

Measured selectivity ratio, CC(=O)O[C@@H]1CC[C@@]2(C)[C@@H](C1)C[C@@H](OC(C)=O)[C@@H]1[C@@H]2C[C@H](OC(C)=O)[C@]2(C)[C@@H]([C@H](C)CCCN(C)CCNc3ccnc4cc(Cl)ccc34)CC[C@@H]12 : 242

Item: CC(=O)O[C@H]1C[C@H]2[C@@H]([C@H](OC(C)=O)C[C@@H]3C[C@H](N)CC[C@@]32C)[C@@H]2CC[C@H]([C@H](C)CCCN(C)CCNc3ccnc4cc(Cl)ccc34)[C@@]12C | selectivity ratio: 4000

Entry CC(=O)O[C@H]1C[C@H]2[C@@H]([C@H](OC(C)=O)C[C@@H]3C[C@H](N)CC[C@@]32C)[C@@H]2CC[C@H]([C@H](C)CCCNCCCNc3ccnc4cc(Cl)ccc34)[C@@]12C ; selectivity ratio = 75

GET /value?item= CC(=O)O[C@H]1C[C@H]2[C@@H]([C@H](OC(C)=O)C[C@@H]3C[C@H](NS(C)(=O)=O)CC[C@@]32C)[C@@H]2CC[C@H]([C@H](C)CCCNCCCNc3ccnc4cc(Cl)ccc34)[C@@]12C &field=selectivity ratio returns 119

Entry CC(=O)O[C@@H]1CC[C@@]2(C)[C@@H](C1)C[C@@H](OC(C)=O)[C@@H]1[C@@H]2C[C@H](OC(C)=O)[C@]2(C)[C@@H]([C@H](C)CCCNCCCNc3ccnc4cc(Cl)ccc34)CC[C@@H]12 , selectivity ratio reported as 101

Query CC(=O)O[C@H]1C[C@H]2[C@@H]([C@H](OC(C)=O)C[C@@H]3CC(=O)CC[C@@]32C)[C@@H]2CC[C@H]([C@H](C)CCCNCCCCNc3ccnc4cc(Cl)ccc34)[C@@]12C yields selectivity ratio of 6

CC(=O)O[C@H]1C[C@H]2[C@@H]([C@H](OC(C)=O)C[C@@H]3C[C@H](N)CC[C@@]32C)[C@@H]2CC[C@H]([C@H](C)CCCNCCNc3ccnc4cc(Cl)ccc34)[C@@]12C has a reported selectivity ratio of 39

Looking up CC(=O)O[C@H]1C[C@H]2[C@@H]([C@H](OC(C)=O)C[C@@H]3C[C@H](O)CC[C@@]32C)[C@@H]2CC[C@H]([C@H](C)CCCNCCCNc3ccnc4cc(Cl)ccc34)[C@@]12C , I found its selectivity ratio recorded as 115

Briefly, selectivity ratio measured for CC(=O)O[C@H]1C[C@H]2[C@@H]([C@H](OC(C)=O)C[C@@H]3C[C@H](N(C)C)CC[C@@]32C)[C@@H]2CC[C@H]([C@H](C)CCCN(C)CCCNc3ccnc4cc(Cl)ccc34)[C@@]12C : 35

Short answer for CC(=O)O[C@H]1C[C@H]2[C@@H]([C@H](OC(C)=O)C[C@@H]3C[C@H](O)CC[C@@]32C)[C@@H]2CC[C@H]([C@H](C)CCCNCCNc3ccnc4cc(Cl)ccc34)[C@@]12C : selectivity ratio was 938

Note to self: selectivity ratio recorded for CC(=O)O[C@H]1C[C@H]2[C@@H]([C@H](OC(C)=O)C[C@@H]3CC(=O)CC[C@@]32C)[C@@H]2CC[C@H]([C@H](C)CCCNCCNc3ccnc4cc(Cl)ccc34)[C@@]12C was 571

Recorded selectivity ratio (molecule CC(=O)O[C@H]1C[C@H]2[C@@H]([C@H](OC(C)=O)C[C@@H]3C[C@H](N)CC[C@@]32C)[C@@H]2CC[C@H]([C@H](C)CCCN(CCC[C@@H](C)[C@H]3CC[C@H]4[C@@H]5[C@H](OC(C)=O)C[C@@H]6C[C@H](N)CC[C@]6(C)[C@H]5C[C@H](OC(C)=O)[C@]34C)CCNc3ccnc4cc(Cl)ccc34)[C@@]12C ): 19

###

Target: Botulinum neurotoxin type A (Clostridium botulinum) (UniProt P0DPI0)
Sequence (P0DPI0 2-448 limits assumed): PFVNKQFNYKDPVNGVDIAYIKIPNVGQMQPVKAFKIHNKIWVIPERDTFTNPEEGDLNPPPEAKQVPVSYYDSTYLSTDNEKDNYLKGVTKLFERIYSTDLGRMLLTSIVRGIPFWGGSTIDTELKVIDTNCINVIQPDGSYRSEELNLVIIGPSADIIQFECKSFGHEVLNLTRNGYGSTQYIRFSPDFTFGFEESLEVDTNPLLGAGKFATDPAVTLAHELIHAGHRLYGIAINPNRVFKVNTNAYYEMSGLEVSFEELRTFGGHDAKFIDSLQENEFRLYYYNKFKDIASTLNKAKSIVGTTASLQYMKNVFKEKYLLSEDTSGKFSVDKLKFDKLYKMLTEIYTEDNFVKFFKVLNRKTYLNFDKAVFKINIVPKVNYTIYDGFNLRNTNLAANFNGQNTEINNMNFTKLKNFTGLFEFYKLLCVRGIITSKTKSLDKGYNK
Assay: Inhibition of Clostridium botulinum recombinant BoNT/A light chain using N-terminal acetylated, C-terminal aminated SNAP-25 (187-203) as substrate at 20 uM by reverse-phase HPLC analysis
Assign satisfied whenever inhibition does not fall below 80%; assign not satisfied whenever it does.

inhibition >= 80% for CC(=O)O[C@H]1C[C@H]2[C@@H]([C@H](OC(C)=O)C[C@@H]3CC(=O)CC[C@@]32C)[C@@H]2CC[C@H]([C@H](C)CCCNCCCCCCNc3ccnc4cc(Cl)ccc34)[C@@]12C ? not satisfied

Can CC(=O)O[C@H]1C[C@H]2[C@@H]([C@H](OC(C)=O)C[C@@H]3C[C@H](N(C)C)CC[C@@]32C)[C@@H]2CC[C@H]([C@H](C)CCCN(C)CCCNc3ccnc4cc(Cl)ccc34)[C@@]12C be said to have inhibition at or above 80%? satisfied

Could you tell me if the measured inhibition of CC(=O)O[C@H]1C[C@H]2[C@@H]([C@H](OC(C)=O)C[C@@H]3C[C@H](NS(C)(=O)=O)CC[C@@]32C)[C@@H]2CC[C@H]([C@H](C)CCCNCCCNc3ccnc4cc(Cl)ccc34)[C@@]12C reaches 80% or more? not satisfied

Check if inhibition >= 80% (inclusive). Item: CCN(CC)CCCC(C)Nc1ccnc2cc(Cl)ccc12 (configuration not stated) [CHLOROQUINE] not satisfied

inhibition >= 80% for CC(=O)O[C@H]1C[C@H]2[C@@H]([C@H](OC(C)=O)C[C@@H]3C[C@H](N)CC[C@@]32C)[C@@H]2CC[C@H]([C@H](C)CCCNCCCNc3ccnc4cc(Cl)ccc34)[C@@]12C ? satisfied

Please tell me: is the compound CC(=O)O[C@H]1C[C@H]2[C@@H]([C@H](OC(C)=O)C[C@@H]3CC(NCCCNc4ccnc5cc(Cl)ccc45)CC[C@@]32C)[C@@H]2CC[C@H]([C@H](C)CCCNCCCNc3ccnc4cc(Cl)ccc34)[C@@]12C (mixture of isomers) at or over 80% in terms of inhibition? satisfied

// inclusive: inhibition at least 80%? input: CC(=O)O[C@H]1C[C@H]2[C@@H]([C@H](OC(C)=O)C[C@@H]3C[C@H](NS(C)(=O)=O)CC[C@@]32C)[C@@H]2CC[C@H]([C@H](C)CCCN(C)CCCNc3ccnc4cc(Cl)ccc34)[C@@]12C not satisfied

hey, is inhibition for this one >= 80%? CC(=O)O[C@H]1C[C@H]2[C@@H]([C@H](OC(C)=O)C[C@@H]3C[C@H](NCCCCCCNc4ccnc5cc(Cl)ccc45)CC[C@@]32C)[C@@H]2CC[C@H]([C@H](C)CCCNCCCCNc3ccnc4cc(Cl)ccc34)[C@@]12C satisfied

Determine whether this compound has inhibition no lower than 80%: CC(=O)O[C@@H]1CC[C@@]2(C)[C@@H](C1)C[C@@H](OC(C)=O)[C@@H]1[C@@H]2C[C@H](OC(C)=O)[C@]2(C)[C@@H]([C@H](C)CCCN(C)CCNc3ccnc4cc(Cl)ccc34)CC[C@@H]12 not satisfied

Determine whether this compound has inhibition no lower than 80%: CC(=O)O[C@H]1C[C@H]2[C@@H]([C@H](OC(C)=O)C[C@@H]3C[C@H](N(C)C)CC[C@@]32C)[C@@H]2CC[C@H]([C@H](C)CCCN(C)CCNc3ccnc4cc(Cl)ccc34)[C@@]12C satisfied

Confirm if inhibition reported for the compound CC(=O)O[C@H]1C[C@H]2[C@@H]([C@H](OC(C)=O)C[C@@H]3C[C@H](NC(=O)OC(C)(C)C)CC[C@@]32C)[C@@H]2CC[C@H]([C@H](C)CCCN(C)CCNc3ccnc4cc(Cl)ccc34)[C@@]12C is 80% or above. not satisfied

Quick check, inhibition >= 80%? CC(=O)O[C@H]1C[C@H]2[C@@H]([C@H](OC(C)=O)C[C@@H]3C[C@H](N)CC[C@@]32C)[C@@H]2CC[C@H]([C@H](C)CCCNCCNc3ccnc4cc(Cl)ccc34)[C@@]12C satisfied

Is inhibition for CC(=O)O[C@H]1C[C@H]2[C@@H]([C@H](OC(C)=O)C[C@@H]3C[C@@H](NCCCCNc4ccnc5cc(Cl)ccc45)CC[C@@]32C)[C@@H]2CC[C@H]([C@H](C)CCCNCCCCNc3ccnc4cc(Cl)ccc34)[C@@]12C at or above 80%? satisfied
